// provenance: PubChem BioAssay (NCI)

Test system: HCT-15 colon
Experiment: NCI-60 one-dose screen, 48 h (100 = growth as untreated, 0 = no growth, -100 = all killed)
Settings: 10 µM unless noted
About 83,000 compounds went through this panel and 20% of them were active in at least one assay; those are over-represented in the sample as a whole.
This section presents compounds with their documented growth values.

- compound: "O=C(O)c1ccc(NC(=O)c2ccc(Nc3ccnc(C(F)(F)F)c3)cc2)cc1"
  growth [%]: 92.1
- compound: "Clc1ccc2nc(Cl)c3ccccc3c2c1"
  growth [%]: 91.4
- compound: "O=C(Nc1ccc(OCc2nnc(-c3ccccc3)o2)c(F)c1)Nc1ccc(Cl)c(C(F)(F)F)c1"
  growth [%]: 11.8
- compound: "COc1ccc(-c2nnc(COc3ccc(NC(=O)Nc4cc(C(F)(F)F)cc(C(F)(F)F)c4)cc3F)o2)cc1"
  growth [%]: 10
- compound: "Oc1ccc(-c2nn(-c3ccccc3)cc2-c2nc3ccccc3s2)cc1"
  growth [%]: 81.6
- compound: "OC(Cc1cccnc1)c1ccccc1 (centres undefined)"
  growth [%]: 104
- compound: "CC(CCC(=O)O)(NC(=O)c1ccc([N+](=O)[O-])cc1)C(=O)O (centres undefined)"
  growth [%]: 113
- compound: "O=C(CCc1nnc(Cn2cncn2)o1)c1nc2ccccc2[nH]1"
  growth [%]: 102
- compound: "CCCCCCOc1ccc(/C=N/NC(N)=S)cc1"
  growth [%]: 33.9
- compound: "CSc1nnc(C2=CC(=O)c3ccccc3C2=O)n1-c1ccccc1"
  growth [%]: 95.3
- compound: "O=C1NCN(CCO)CN1"
  growth [%]: 109
- compound: "Cc1c(C(N)=O)sc2nc(SCC(=O)Nc3ccc(Cl)cc3)n(-c3ccccc3)c(=O)c12"
  growth [%]: 121
- compound: "O=C(c1ccccc1)c1ccco1"
  growth [%]: 104
- compound: "COc1ccc(OC)c(NC(=O)c2cc3oc4ccccc4c3cc2O)c1"
  growth [%]: 96.7
